# Assay Method Text: Antiinflammatory activity in human whole blood cells assessed as inhibition of TNF-alpha-induced IL8 production after 16 to 18 hrs
# Type: functional, cell-based
Please assign label 0 whenever IC50 is at or above 60 nM, and label 1 whenever it is below.

{"Compound Structure": "Cc1ccc(C(=O)O)cc1-c1cc2cnnc(-c3ccc(F)cc3F)c2n(C)c1=O", "Assigned Class": "label 0"}
{"Compound Structure": "CN(c1ccc(F)cc1)c1cc2cnnc(-c3ccc(F)cc3F)c2n(C)c1=O", "Assigned Class": "label 0"}
{"Compound Structure": "Cc1ccc(C(=O)NC2CC2)cc1-c1cc2cnnc(-c3ccc(F)cc3F)c2n(C)c1=O", "Assigned Class": "label 1"}
{"Compound Structure": "Cn1c(=O)c(Nc2ccc(F)cn2)cc2cnnc(-c3ccc(F)cc3F)c21", "Assigned Class": "label 0"}
{"Compound Structure": "Cc1ccc(C(=O)NC2(C)CC2)cc1-c1cc2cnnc(-c3ccc(F)cc3F)c2n(C)c1=O", "Assigned Class": "label 1"}
{"Compound Structure": "Cn1c(=O)c(Nc2ncc(F)cc2F)cc2cnnc(-c3ccc(F)cc3F)c21", "Assigned Class": "label 0"}
{"Compound Structure": "Cn1c(=O)c(Nc2ccc(F)cc2)cc2cnnc(-c3ccc(F)cc3F)c21", "Assigned Class": "label 0"}
{"Compound Structure": "Cn1c(=O)c(-c2cc(C(=O)NC3CC3)ccc2Cl)cc2cnnc(-c3ccc(F)cc3F)c21", "Assigned Class": "label 1"}
{"Compound Structure": "Cc1c(F)cc(C(=O)NC2CC2)cc1-c1cc2cnnc(-c3ccc(F)cc3F)c2n(C)c1=O", "Assigned Class": "label 1"}
{"Compound Structure": "Cc1cnc(C(=O)NC2CC2)cc1-c1cc2cnnc(-c3ccc(F)cc3F)c2n(C)c1=O", "Assigned Class": "label 0"}
{"Compound Structure": "Cn1c(=O)c(Oc2ccc(F)cc2)cc2cnnc(-c3ccc(F)cc3F)c21", "Assigned Class": "label 0"}
{"Compound Structure": "Cn1c(=O)c(Nc2ccc(F)cc2F)cc2cnnc(-c3ccc(F)cc3F)c21", "Assigned Class": "label 1"}
{"Compound Structure": "Cn1c(=O)c(Oc2ccc(F)cc2F)cc2cnnc(-c3ccc(F)cc3F)c21", "Assigned Class": "label 0"}
{"Compound Structure": "Cc1ccc(C(N)=O)cc1-c1cc2cnnc(-c3ccc(F)cc3F)c2n(C)c1=O", "Assigned Class": "label 1"}
{"Compound Structure": "Cn1c(=O)c(Cc2ccc(F)cc2)cc2cnnc(-c3ccc(F)cc3F)c21", "Assigned Class": "label 0"}
{"Compound Structure": "Cn1c(=O)c(Cc2ccc(F)cc2F)cc2cnnc(-c3ccc(F)cc3F)c21", "Assigned Class": "label 0"}
{"Compound Structure": "CNC(=O)c1ccc(C)c(-c2cc3cnnc(-c4ccc(F)cc4F)c3n(C)c2=O)c1", "Assigned Class": "label 1"}
